# Lookup of reported EC50 keyed by entry
tgt: T1, human MICA allele MICA*008 (human, UniProt Q29983 24-297)
T1 construct: Expressed on transfected C1R cells; also called MICA*08; C1R-MICA*008
T1 chain: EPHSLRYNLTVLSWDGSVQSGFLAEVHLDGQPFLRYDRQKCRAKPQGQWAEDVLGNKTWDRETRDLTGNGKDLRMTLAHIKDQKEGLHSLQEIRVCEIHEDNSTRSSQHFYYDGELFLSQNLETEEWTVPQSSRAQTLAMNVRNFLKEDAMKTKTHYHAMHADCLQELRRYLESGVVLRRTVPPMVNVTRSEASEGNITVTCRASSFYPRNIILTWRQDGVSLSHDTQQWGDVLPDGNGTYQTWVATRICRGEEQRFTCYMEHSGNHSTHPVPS
assay.name: flow cytometry, C1R-MICA*008 transfectant cells
Enter your answer as a number in µg/mL; do not include the unit.

[
  {
    "binder": "mAb6 (antibody, V domains shown, Produced in CHO cells as human IgG1 with huCk constant domain) VH: QVQLQESGPGLVKPSETLSLTCTVSGYSITSDYAWNWIRQPPGKGLEWMGFVSYSGTTKYNPSLKSRVTISRDTSKNQFSLKLSSVTAADTAVYYCARGYGFDYWGQGTTVTVSS VL: EIVLTQSPATLSLSPGERATLSCSATSSISSIYFHWYQQKPGQAPRLLIYRTSNLASGIPARFSGSGSGTDYTLTISSLEPEDVAVYYCQQGTTIPFTFGQGTKLEIK",
    "EC50, µg/mL": 0.0953
  }
]

Input line: Annotate the binder mAb11 (antibody, V domains shown, Produced in CHO cells as human IgG1 with huCk constant domain) VH: QVQLQESGPGLVKPSETLSLTCTVSGYSITSDYAWNWIRQPPGKGLEWMGFVSYSGTTKYNPSLKSRITISRDTSENQFSLKLSSVTAADTAVYYCARGYGFDYWGQGTTVTVSS VL: EIVLTQSPATLSLSPGERATLSCSATSSISSIYFHWYQQKPGQAPRLLIYRTSNLASGIPARFSGSGSGTSYTLTISSLEPEDFAVYYCQQGTTIPFTFGQGTKLEIK with its measured EC50.
Output line: 0.0789

Input line: Annotate the binder mAb4 (antibody, V domains shown, Produced in CHO cells as human IgG1 with huCk constant domain) VH: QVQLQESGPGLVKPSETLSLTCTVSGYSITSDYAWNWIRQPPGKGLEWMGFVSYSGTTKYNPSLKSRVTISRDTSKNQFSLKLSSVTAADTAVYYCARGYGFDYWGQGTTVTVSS VL: EIVLTQSPATLSLSPGERATLSCSATSSISSIYFHWYQQKPGQAPRLLIYRTSNLASGIPARFSGSGSGTDYTLTISSLEPEDFAVYYCQQGTTIPFTFGQGTKLEIK with its measured EC50.
Output line: 0.0859
